Reported Emax by item:
target: human S1P5 receptor (S1PR5) (Homo sapiens, UniProt Q9H228); construct: host or cells: CHO-K1; experiment: Intracellular Ca2+ release (method 1), agonist potency and efficacy, S1P5; type: cell-based; conditions: maximum effect in % of reference agonist phospho-fingolimod (100%); read-out: hS1P5 EMax
Sequence (Q9H228 whole entry): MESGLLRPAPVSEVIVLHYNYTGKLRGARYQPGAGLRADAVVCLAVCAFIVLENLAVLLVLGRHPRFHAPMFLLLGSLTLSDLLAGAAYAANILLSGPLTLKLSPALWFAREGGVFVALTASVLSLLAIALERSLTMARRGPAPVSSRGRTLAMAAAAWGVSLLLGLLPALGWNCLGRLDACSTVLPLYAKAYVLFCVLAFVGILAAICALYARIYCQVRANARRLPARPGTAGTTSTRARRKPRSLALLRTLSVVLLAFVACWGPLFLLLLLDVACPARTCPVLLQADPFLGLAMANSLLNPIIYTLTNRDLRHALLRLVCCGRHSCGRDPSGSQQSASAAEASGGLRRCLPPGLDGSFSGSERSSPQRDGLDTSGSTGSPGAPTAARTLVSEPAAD

Solved entries (count: 5):
> print(dat)
                                   compound  observed.result
1  O=C(O)CCN1Cc2ccc(C#Cc3cccc(Cl)c3)cc2C2(CC2)C1            < 50%
2  CC(C)c1ccc(C#Cc2ccc3c(c2)C2(CC2)CN(CCC(=O)O)C3)cc1           > 100%
3  CC(CC(=O)O)CN1Cc2ccc(C#Cc3ccc(OC(C)C)nc3)cc2C2(CC2)C1 (stereo not drawn)       50 to 100%
4  CCOc1ccc(C#Cc2ccc3c(c2)C2(CC2)CN(CCC(=O)O)C3)cc1       50 to 100%
5  CC(CC(=O)O)CN1Cc2ccc(C#Cc3ccc(OC4CCCC4)cc3)cc2C2(CC2)C1 (stereo not drawn)           > 100%

Exercise: Return Emax for the following compound: CCOc1ccc(C#Cc2ccc3c(c2)C2(CC2)CN(C2CC(C(=O)O)C2)C3)cc1F (stereo not drawn)
Solution: 50 to 100%

Exercise: // Input: CC(C)Oc1ccc(C#Cc2ccc3c(c2)C2(CC2)CN(CCCC(=O)O)C3)cn1 . Output its Emax only.
Solution: 50 to 100%

Exercise: Return Emax for the following compound: Cc1ccccc1COc1ccc2c(c1)C1(CC1)CN(CCCC(=O)O)C2
Solution: 50 to 100%

Exercise: Hello, please tell me recorded Emax for this one: O=C(O)CCN1Cc2ccc(C#Cc3c(Cl)cccc3Cl)cc2C2(CC2)C1
Solution: 50 to 100%

Exercise: Provide one value: measured Emax of CCOc1ccc(C#Cc2ccc3c(c2)C2(CC2)CN(CCCC(=O)O)C3)cn1
Solution: 50 to 100%
